Sourced from patent US20140377340A1

- SYSTEM UNDER TEST: purified HLA DRB1*0701 (Homo sapiens, UniProt P01903+P01911, A100R/A102G/A103Q/D57E/D86V/E43K/F76Y/K127E/L162R/M171V/P40G/Q125H/Q99D/R33Q/R42Y/R54Q/S133A/S66F/T210M/V115G/Y107V/Y59L/Y89S)
- Construct: purified from EBV transformed homozygous cell lines or single MHC allele transfected 721.221, C1R, or fibroblast lines; made in house
- EXPERIMENT NOTES: HLA-DR radioligand binding inhibition assay, DRB1*0701
- STUDY CONDITIONS: IC50 nM purified HLA DRB1 *0701, purified HLA DRB1*0701
RECORDED ENDPOINT: IC50
// return the numeric value with its unit appended

Incoming: Returns the measured IC50 for the input compound. Input: CC[C@H](C)[C@H](N)C(=O)N[C@@H](CC(N)=O)C(=O)NCC(=O)N[C@H](C(=O)N1CCC[C@H]1C(=O)N[C@@H](CCC(N)=O)C(=O)N[C@@H](CCC(N)=O)C(=O)N[C@@H](Cc1c[nH]cn1)C(=O)N[C@H](C(=O)N[C@@H](CCC(N)=O)C(=O)N[C@H](C(=O)N[C@@H](CC(C)C)C(=O)N[C@@H](Cc1ccccc1)C(=O)N[C@H](C(=O)N[C@@H](C)C(=O)O)[C@@H](C)CC)C(C)C)[C@@H](C)O)[C@@H](C)CC [Peptide 9019.0139]
Outgoing: 31 nM
